assay: modulators of HCV replicon luciferase signal, primary screen, HCV replication inhibitor project, Huh7 cells, luciferase reporter (AID 1109); details: 48 h, higher = more signal;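 note: huh7 hepatoma cells harbouring a luciferase neomycin HCV replicon reporter; luciferase luminescence as measure of HCV replicon replication; test concentration not given here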

| molecule | z-score |
| --- | --- |
| COCCn1c(C(=O)N2CCCC2)cc2c1C[C@H]1CN(C(=O)c3ccccc3)[C@@](Cc3ccccc3)(C(=O)OC)[C@@H]21 | -0.976 |
| NC(=O)NCC#Cc1ccc2c(c1)[C@]1(C(=O)N2)[C@H](C(=O)N2CCCCCCC2)[C@H]2C(=O)O[C@H](c3ccccc3)[C@H](c3ccccc3)N2[C@@H]1c1ccc(O)cc1 | -1.13 |
| CCCCN1CC=CC23O[C@@H]4C=CCOC(=O)[C@@H]4[C@H]2C(=O)N(CCO)[C@@H]3C1=O (stereo not given in full) | 0.407 |
| C#CCN(C/C=C/c1ccccc1)[C@H](CO[Si](C)(C)C(C)(C)C)c1ccccc1 | -2.36 |
| COCCCNC(=O)[C@@H]1c2ccccc2C(=O)N(Cc2cc(C(F)(F)F)cc(C(F)(F)F)c2)[C@H]1c1ccc(CO)cc1 | -0.293 |
| CCCCC(=C=CC[C@@H](O)c1ccc(OCCO)cc1)C[C@@H](O)c1ccccn1 | -1.49 |
| COc1cccc(C[C@H]2C[C@@H](CO[Si](C(C)C)(C(C)C)C(C)C)N3C(=O)[C@@]4(C(C)=O)O[C@@]23[C@@H]2C(=O)N(C)C(=O)[C@@H]24)c1 | -2.81 |
| CC(C)CNC(=O)[C@@H]1c2ccccc2C(=O)N(C2Cc3ccccc3C2)[C@H]1c1ccc(CO)cc1 | -0.235 |
| O=C1OCCC/C=C\[C@H]2OC34C=CCN(Cc5ccccc5)C(=O)[C@H]3N(CCCCCO)C(=O)[C@@H]4C12 (stereo not given in full) | -1.06 |
| CCN(CC)c1ccc(N2CC=CC34O[C@@H]5C=CCOC(=O)[C@@H]5[C@H]3C(=O)N(CCO)[C@@H]4C2=O)cc1 (stereo not given in full) | 0.466 |
| CC(=O)NCCCC[C@@H]1NC(=O)[C@@H]2C[C@H](C(=O)NCCCCCC[N+](C)(C)C)[C@H](c3ccc(O)cc3)N2C1=O | 0.825 |
| CCCCC(O)C1C=CC2C(=O)NC(=O)C2N1Nc1ccccn1 (stereo not given) | -1.11 |
| COCC1=C([C@H](O)CCc2ccccc2)[C@H](CO)n2c(=O)n(-c3ccccc3)c(=O)n2C1 | -0.482 |
| NC(=O)[C@@]1(CCS(=O)(=O)c2ccccc2)COC(c2ccc(OCCCO)cc2)=N1 | -0.806 |
| C=CC[C@@]1(C(=O)N(C)C)N=C(c2ccc(OCCCO)cc2)O[C@@H]1c1ccccc1 | -0.624 |
| N[C@@H](Cc1ccccc1)Cn1cc(C2(O)CCCCC2)nn1 | 0.118 |
| CO[C@H]1O[C@H](CO)[C@@H](OC(=O)Nc2ccc3c(c2)OCO3)[C@@H]2OC(=O)[C@@H](Cc3ccccc3)C/C=C/C[C@H](Cc3ccccc3)C(=O)O[C@@H]12 | -2.54 |
| CC(C)C[C@@H]1NC(=O)[C@H]2C[C@@H](C(=O)NCCCCCCNC(=O)CS)[C@@H](c3ccc(O)cc3)N2C1=O | -1.13 |
| CCOC(=O)C[C@H]1[C@H](OC(=O)Cc2ccc3c(c2)OCO3)[C@@H](NC(=O)c2ccccc2)c2cc(OCCCO)ccc2N1C(=O)Cc1ccc(OC)cc1 | -1.53 |
| COC(=O)[C@@]1(Cc2ccc(F)cc2)[C@H]2c3cc(C(=O)N(C)C)n(CCN4CCOCC4)c3C[C@H]2CN1C(=O)c1ccccc1 | 0.349 |
| O=C1C2C=CC(C(O)c3cccs3)N(Nc3ccccc3)C2C(=O)N1c1ccccc1 (stereo not given) | -1.09 |
| CCOC(=O)C1=CC[C@@H](c2ccccc2)N(S(=O)(=O)C[Si](C)(C)C)[C@H]1c1ccccc1 | -0.61 |
| CN1C(=O)[C@]2(CCS(=O)(=O)c3ccccc3)N=C(c3ccc(OCCCO)cc3)O[C@@H]2c2ccccc21 | -2.63 |
| C=C(CCCC)C(=O)CC[C@H](OC(C)=O)c1ccccc1OCCO | -3.4 |
| COC(=O)[C@@]1(Cc2ccccc2)[C@H]2c3cc(C(=O)N4CCCC4)n(Cc4ccc(C(F)(F)F)nc4)c3C[C@H]2CN1C(=O)c1ccccc1 | -2.59 |
| CC(C)(C)OC(=O)CC[C@]1(C(=O)N2CCOCC2)N=C(c2ccc(OCCCO)cc2)O[C@H]1c1ccccc1CN=[N+]=[N-] | -0.229 |
| COCCOC(=O)N1C(=O)[C@@]2(c3cc(C#CCCO)ccc31)[C@H](c1ccc(O)cc1)N1[C@H](c3ccccc3)[C@H](c3ccccc3)OC(=O)[C@H]1[C@@H]2C(=O)N1CCc2cc(OC)c(OC)cc2C1 | -0.561 |
| CN(C)CCCC[C@@H]1NC(=O)[C@H]2C[C@@H](C(=O)O)[C@@H](c3cccc(OCCO)c3)N2C1=O | 4.23 |
| COCCOC(=O)N1C(=O)[C@@]2(c3cc(C#CCNC(N)=O)ccc31)[C@H](C(=O)NC[C@H](O)c1ccccc1)[C@H]1C(=O)O[C@H](c3ccccc3)[C@H](c3ccccc3)N1[C@@H]2c1ccc(OCCO)cc1 | 0.724 |
| CCOC(=O)C1=C[C@@H](C(C)(C)C)N(S(=O)(=O)c2ccc(C)cc2)[C@H]1c1ccccc1Cl | -1.8 |
